meta.source: patent US20250206841A1

# Lookup of reported pKd keyed by entry
- Experimental system: T1, human Trop-2-His protein (human, UniProt P09758 27-274)
- T1 construct: extracellular domain; Assay paragraphs say only 'Trop-2-His'; also called hTrop-2; Kactus Cat #TRP-HM121; not shown: His tag
- T1 sequence (looked up): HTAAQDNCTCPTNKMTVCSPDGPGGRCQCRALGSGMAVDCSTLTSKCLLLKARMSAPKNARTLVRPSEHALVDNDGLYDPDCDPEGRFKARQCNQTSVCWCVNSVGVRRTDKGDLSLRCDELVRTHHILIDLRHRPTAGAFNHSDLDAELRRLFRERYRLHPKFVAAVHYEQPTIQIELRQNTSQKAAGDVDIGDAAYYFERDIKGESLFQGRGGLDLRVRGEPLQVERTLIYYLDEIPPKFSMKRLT
- Assay explanation: BLI (Gator Prime), LEM supernatant Ab on HFC probe
- Protocol: After three times of regeneration and neutralization of HFC probe (Gator, Cat #160003), LEM transfection supernatant samples to be tested in K buffer was diluted 1:1 in K buffer and immobilized onto HFC probe. […] The association and dissociation of human or cynomolgus Trop-2-His antigen from antibody was measured on BLI machine Gator Prime. Affinity was calculated using Gator Bio analysis software. Blank control was used for reference subtraction. […]
On this scale, pKd is minus log10 of a concentration expressed in M (mol/L).

>>> reported_result("10E12 (antibody, V domains shown, Rabbit-derived clone; LEM construct: VH + rabbit IgG CH1 + human IgG1 CH2-CH3) VH: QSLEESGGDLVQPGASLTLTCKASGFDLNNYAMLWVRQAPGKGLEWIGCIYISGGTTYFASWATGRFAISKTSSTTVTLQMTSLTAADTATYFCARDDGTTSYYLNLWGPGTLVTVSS VL: YDMTQTPASVSAAVGGTVTIKCQASEDIYSLLAWYQQKPGQPPKLLIYDASDLASGVPSRFKGSGSGTEYTLTISDLECDDAATYYCQQAYTIGNIDNAFGGGTEVVVK")
9.76

We next turn to a different binder, shown below.
-- ask Look up pKd for this binder: 5D4 (antibody, V domains shown, Rabbit-derived clone; LEM construct: VH + rabbit IgG CH1 + human IgG1 CH2-CH3) VH: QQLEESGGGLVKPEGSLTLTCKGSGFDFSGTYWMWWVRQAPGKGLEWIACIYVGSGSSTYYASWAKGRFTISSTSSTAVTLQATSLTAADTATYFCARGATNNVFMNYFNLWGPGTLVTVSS VL: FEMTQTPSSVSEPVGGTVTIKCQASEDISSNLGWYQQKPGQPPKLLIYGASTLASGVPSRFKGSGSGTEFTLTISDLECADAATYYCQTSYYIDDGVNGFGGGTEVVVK
-- reply 9.55
